Sourced from ChEMBL document CHEMBL5500378

PROCEDURE_DETAILS: Cmax in Sprague-Dawley rat at 10 mg/kg, iv measured for 2880 mins by LC-MS/MS analysis
Type: ADME, organism-based
EXPERIMENTAL_CONTEXT: in vivo
MEASURED_PROPERTY: Cmax (ng/mL)
// units = ng/mL; emit number, no label

Please report the recorded Cmax for CCCc1ccc(C(=O)Nc2cnc3ccccc3c2N2CCN(Cc3ccccc3)CC2)cc1 .
7120

---

Consider the following IC50 values measured on Acetylcholinesterase (Electrophorus electricus, UniProt O42275).
Sequence (O42275 whole entry): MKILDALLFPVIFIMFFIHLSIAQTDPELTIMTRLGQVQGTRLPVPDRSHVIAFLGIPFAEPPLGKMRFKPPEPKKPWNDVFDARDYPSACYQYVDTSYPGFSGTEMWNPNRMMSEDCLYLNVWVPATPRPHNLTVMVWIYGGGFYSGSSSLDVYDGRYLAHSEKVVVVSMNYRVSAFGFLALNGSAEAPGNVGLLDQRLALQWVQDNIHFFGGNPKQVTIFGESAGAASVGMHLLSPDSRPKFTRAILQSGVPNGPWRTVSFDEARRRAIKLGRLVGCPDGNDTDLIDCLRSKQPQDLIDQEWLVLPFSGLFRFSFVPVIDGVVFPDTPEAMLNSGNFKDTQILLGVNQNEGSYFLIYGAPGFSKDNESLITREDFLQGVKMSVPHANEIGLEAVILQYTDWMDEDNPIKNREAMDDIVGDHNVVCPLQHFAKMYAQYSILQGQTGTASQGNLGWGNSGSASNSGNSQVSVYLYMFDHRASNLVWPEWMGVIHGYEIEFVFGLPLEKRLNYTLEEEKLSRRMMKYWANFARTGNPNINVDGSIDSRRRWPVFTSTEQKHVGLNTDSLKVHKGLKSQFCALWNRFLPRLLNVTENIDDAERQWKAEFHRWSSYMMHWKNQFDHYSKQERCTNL
// units = µM; emit number, no label

# annotated cases, reported IC50 shown
# CHEMICAL_SMILES, IC50 / µM
data = [
    ("Cc1ccc(C(=O)Nc2cnc3ccccc3c2N2CCN(Cc3ccccc3)CC2)c(C)c1", 3.77),
    ("O=C(Nc1cnc2ccccc2c1N1CCN(Cc2ccccc2)CC1)C1CCCCC1", 2.02),
    ("O=C(Nc1cnc2ccccc2c1N1CCN(Cc2ccccc2)CC1)C1CCCC1", 1.34),
    ("O=C(Nc1cnc2ccccc2c1N1CCN(Cc2ccccc2)CC1)c1cccs1", 4.04),
]

Note: attention shifts to another entry.
Query the reported IC50 for Acetylcholinesterase (Electrophorus electricus, UniProt O42275); item: O=C(Nc1cnc2ccccc2c1N1CCN(Cc2ccccc2)CC1)c1ccco1
4.22

---

We begin with a simple list: items and their reported pIC50.
TEST_TARGET: Cholinesterase (Equus caballus, UniProt P81908)
Sequence (P81908 whole entry): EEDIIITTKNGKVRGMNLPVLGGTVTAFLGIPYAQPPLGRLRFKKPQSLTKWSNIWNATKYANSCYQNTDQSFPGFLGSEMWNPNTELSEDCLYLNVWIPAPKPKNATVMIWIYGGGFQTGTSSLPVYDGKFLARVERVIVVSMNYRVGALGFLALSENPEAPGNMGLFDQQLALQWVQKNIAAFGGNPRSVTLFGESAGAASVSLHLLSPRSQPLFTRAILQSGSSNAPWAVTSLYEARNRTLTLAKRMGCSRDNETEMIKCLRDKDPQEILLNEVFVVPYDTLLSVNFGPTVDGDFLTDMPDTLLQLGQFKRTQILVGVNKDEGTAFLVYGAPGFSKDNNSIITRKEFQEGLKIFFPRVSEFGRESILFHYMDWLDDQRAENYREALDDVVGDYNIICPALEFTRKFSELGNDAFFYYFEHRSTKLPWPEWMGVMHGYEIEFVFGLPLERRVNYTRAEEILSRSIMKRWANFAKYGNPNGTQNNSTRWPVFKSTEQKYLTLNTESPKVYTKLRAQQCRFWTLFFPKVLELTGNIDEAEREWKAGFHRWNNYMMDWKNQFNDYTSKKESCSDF
PROCEDURE_DETAILS: Inhibition of equine serum BChE using BTC as substrate incubated for 2 mins by Ellman's method
The scale used: pIC50 is minus the common logarithm of the concentration in molar units.

# annotated cases, reported pIC50 shown
# CHEMICAL_SMILES, pIC50
data = [
    ("COc1ccccc1C(=O)Nc1cnc2ccccc2c1N1CCN(Cc2ccccc2)CC1", 6.74),
    ("CCc1ccc(C(=O)Nc2cnc3ccccc3c2N2CCN(Cc3ccccc3)CC2)cc1", 5.58),
    ("O=C(Nc1cnc2ccccc2c1N1CCN(Cc2ccccc2)CC1)c1ccc(Br)cc1", 5.90),
    ("Cc1ccc(C(=O)Nc2cnc3ccccc3c2N2CCN(Cc3ccccc3)CC2)cc1", 6.80),
    ("O=C(Nc1cnc2ccccc2c1N1CCN(Cc2ccccc2)CC1)c1cccc2ccccc12", 6.85),
    ("CC(C)c1ccc(C(=O)Nc2cnc3ccccc3c2N2CCN(Cc3ccccc3)CC2)cc1", 5.93),
]

Please report the recorded pIC50 for O=C(Nc1cnc2ccccc2c1N1CCN(Cc2ccccc2)CC1)c1ccc(Cl)cc1 .
6.40

Please report the recorded pIC50 for O=C(Cc1cccc([N+](=O)[O-])c1)Nc1cnc2ccccc2c1N1CCN(Cc2ccccc2)CC1 .
5.20

Please report the recorded pIC50 for Cc1cccc(C(=O)Nc2cnc3ccccc3c2N2CCN(Cc3ccccc3)CC2)n1 .
5.48

Please report the recorded pIC50 for CCCCCc1ccc(C(=O)Nc2cnc3ccccc3c2N2CCN(Cc3ccccc3)CC2)cc1 .
6.77

---

PROCEDURE_DETAILS: Tmax in Sprague-Dawley rat at 10 mg/kg, iv measured for 2880 mins by LC-MS/MS analysis
Assay type: ADME, organism-based
EXPERIMENTAL_CONTEXT: in vivo
MEASURED_PROPERTY: Tmax (min)
// units = min; emit number, no label

Please report the recorded Tmax for CCCc1ccc(C(=O)Nc2cnc3ccccc3c2N2CCN(Cc3ccccc3)CC2)cc1 .
1

---

PROCEDURE_DETAILS: Half life in Sprague-Dawley rat at 10 mg/kg, IG measured for 2880 mins by LC-MS/MS analysis
Type: ADME, organism-based
EXPERIMENTAL_CONTEXT: in vivo, po
MEASURED_PROPERTY: half-life (h)
// units = h; emit number, no label

Please report the recorded half-life for CCCc1ccc(C(=O)Nc2cnc3ccccc3c2N2CCN(Cc3ccccc3)CC2)cc1 .
2.81

---

PROCEDURE_DETAILS: Oral bioavailability in Sprague-Dawley rat at 10 mg/kg, IG or 10 mg/kg, iv measured for 2880 mins by LC-MS/MS analysis
Type: ADME, organism-based
EXPERIMENTAL_CONTEXT: in vivo
MEASURED_PROPERTY: bioavailability (%)
// units = %; emit number, no label

Please report the recorded bioavailability for CCCc1ccc(C(=O)Nc2cnc3ccccc3c2N2CCN(Cc3ccccc3)CC2)cc1 .
92.3

---

TEST_TARGET: Cholinesterase (Equus caballus, UniProt P81908)
PROCEDURE_DETAILS: Inhibition of equine serum BChE using BTC as substrate incubated for 2 mins by Ellman's method
MEASURED_PROPERTY: pIC50
The scale used: pIC50 is minus the common logarithm of the concentration in molar units.

# annotated cases, reported pIC50 shown
# CHEMICAL_SMILES, MEASURED_PROPERTY, RECORDED_RESULT
measured = [
    ("COc1ccc(C(=O)Nc2cnc3ccccc3c2N2CCN(Cc3ccccc3)CC2)cc1", "pIC50", 6.74),
    ("O=C(Cc1ccccc1)Nc1cnc2ccccc2c1N1CCN(Cc2ccccc2)CC1", "pIC50", 6.23),
    ("O=C(Cc1ccccc1Cl)Nc1cnc2ccccc2c1N1CCN(Cc2ccccc2)CC1", "pIC50", 6.11),
    ("Cc1cccc(CC(=O)Nc2cnc3ccccc3c2N2CCN(Cc3ccccc3)CC2)c1", "pIC50", 6.37),
    ("O=C(Nc1cnc2ccccc2c1N1CCN(Cc2ccccc2)CC1)c1cccs1", "pIC50", 6.68),
    ("O=C(Nc1cnc2ccccc2c1N1CCN(Cc2ccccc2)CC1)C1CCCCC1", "pIC50", 4.92),
    ("O=C(Nc1cnc2ccccc2c1N1CCN(Cc2ccccc2)CC1)c1cccc([N+](=O)[O-])c1", "pIC50", 5.89),
    ("Cc1ccc(CC(=O)Nc2cnc3ccccc3c2N2CCN(Cc3ccccc3)CC2)cc1", "pIC50", 5.33),
]

Query the reported pIC50 for Cholinesterase (Equus caballus, UniProt P81908); item: O=C(Nc1cnc2ccccc2c1N1CCN(Cc2ccccc2)CC1)c1ccco1
6.38

---

PROCEDURE_DETAILS: AUC (0 to t) in brain of ICR mouse at 10 mg/kg, IG measured at 10 to 240 mins by LC-MS/MS analysis
Type: ADME, organism-based
EXPERIMENTAL_CONTEXT: po, time 10-240 min
MEASURED_PROPERTY: AUC(0-t) (ng·h/mL)
// units = ng·h/mL; emit number, no label

Please report the recorded AUC(0-t) for CCCc1ccc(C(=O)Nc2cnc3ccccc3c2N2CCN(Cc3ccccc3)CC2)cc1 .
38300

---

PROCEDURE_DETAILS: AUC (0 to t) in Sprague-Dawley rat at 10 mg/kg, IG measured for 2880 mins by LC-MS/MS analysis
Assay type: ADME, organism-based
EXPERIMENTAL_CONTEXT: in vivo, po
MEASURED_PROPERTY: AUC(0-t) at 48 h (ng·h/mL)
// units = ng·h/mL; emit number, no label

Please report the recorded AUC(0-t) at 48 h for CCCc1ccc(C(=O)Nc2cnc3ccccc3c2N2CCN(Cc3ccccc3)CC2)cc1 .
5650

---

TEST_TARGET: Cholinesterase (Homo sapiens, UniProt P06276)
Sequence (P06276 whole entry): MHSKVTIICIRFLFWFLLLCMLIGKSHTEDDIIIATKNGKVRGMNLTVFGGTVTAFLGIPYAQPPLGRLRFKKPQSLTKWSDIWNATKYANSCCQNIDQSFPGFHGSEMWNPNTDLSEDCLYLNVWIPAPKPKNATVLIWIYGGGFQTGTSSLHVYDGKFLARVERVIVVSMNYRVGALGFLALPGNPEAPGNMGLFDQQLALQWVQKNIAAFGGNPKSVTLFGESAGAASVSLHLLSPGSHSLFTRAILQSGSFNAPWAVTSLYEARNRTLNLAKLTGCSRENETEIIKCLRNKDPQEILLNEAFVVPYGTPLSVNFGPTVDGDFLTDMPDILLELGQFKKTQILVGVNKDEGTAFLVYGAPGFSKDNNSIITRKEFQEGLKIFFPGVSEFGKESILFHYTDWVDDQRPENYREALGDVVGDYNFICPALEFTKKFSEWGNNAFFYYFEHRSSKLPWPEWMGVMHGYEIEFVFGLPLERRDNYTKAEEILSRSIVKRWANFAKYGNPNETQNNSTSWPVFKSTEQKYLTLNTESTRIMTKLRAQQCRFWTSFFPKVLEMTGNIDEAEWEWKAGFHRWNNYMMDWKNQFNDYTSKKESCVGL
MEASURED_PROPERTY: log10(IC50) (log10 of the value in nM)
Transform log10 | Measure IC50 | Unit nM

# annotated cases, reported log10(IC50) shown
# CHEMICAL_SMILES, MEASURED_PROPERTY, RECORDED_RESULT
rows = [
    ("COc1ccccc1C(=O)Nc1cnc2ccccc2c1N1CCN(Cc2ccccc2)CC1", "log10(IC50)", 4.26),
    ("O=C(Nc1cnc2ccccc2c1N1CCN(Cc2ccccc2)CC1)c1ccc2ccccc2c1", "log10(IC50)", 4.08),
    ("O=C(Nc1cnc2ccccc2c1N1CCN(Cc2ccccc2)CC1)c1ccc(Cl)cc1", "log10(IC50)", 3.64),
    ("O=C(CCc1ccccc1)Nc1cnc2ccccc2c1N1CCN(Cc2ccccc2)CC1", "log10(IC50)", 3.73),
    ("Cc1ccc(C(=O)Nc2cnc3ccccc3c2N2CCN(Cc3ccccc3)CC2)c(C)c1", "log10(IC50)", 3.55),
]

Please report the recorded log10(IC50) for CCCCc1ccc(C(=O)Nc2cnc3ccccc3c2N2CCN(Cc3ccccc3)CC2)cc1 .
2.74

Please report the recorded log10(IC50) for Cc1cccc(CC(=O)Nc2cnc3ccccc3c2N2CCN(Cc3ccccc3)CC2)c1 .
4.03

Please report the recorded log10(IC50) for O=C(Nc1cnc2ccccc2c1N1CCN(Cc2ccccc2)CC1)c1ccccc1Cl .
3.05

Please report the recorded log10(IC50) for CCCc1ccc(C(=O)Nc2cnc3ccccc3c2N2CCN(Cc3ccccc3)CC2)cc1 .
2.20

Please report the recorded log10(IC50) for O=C(Nc1cnc2ccccc2c1N1CCN(Cc2ccccc2)CC1)c1cccc2ccccc12 .
3.62

Please report the recorded log10(IC50) for O=C(Cc1ccccc1Cl)Nc1cnc2ccccc2c1N1CCN(Cc2ccccc2)CC1 .
3.06

Please report the recorded log10(IC50) for Cc1ccccc1C(=O)Nc1cnc2ccccc2c1N1CCN(Cc2ccccc2)CC1 .
3.08

Please report the recorded log10(IC50) for O=C(Cc1ccccc1)Nc1cnc2ccccc2c1N1CCN(Cc2ccccc2)CC1 .
3.97

Please report the recorded log10(IC50) for O=C(Nc1cnc2ccccc2c1N1CCN(Cc2ccccc2)CC1)c1ccc(Cl)cc1Cl .
3.38

Please report the recorded log10(IC50) for CCCCCc1ccc(C(=O)Nc2cnc3ccccc3c2N2CCN(Cc3ccccc3)CC2)cc1 .
3.20

Please report the recorded log10(IC50) for Cc1ccc(C(=O)Nc2cnc3ccccc3c2N2CCN(Cc3ccccc3)CC2)cc1 .
2.89

Please report the recorded log10(IC50) for O=C(Nc1cnc2ccccc2c1N1CCN(Cc2ccccc2)CC1)c1ccccc1 .
3.23

Please report the recorded log10(IC50) for O=C(Nc1cnc2ccccc2c1N1CCN(Cc2ccccc2)CC1)c1ccccn1 .
3.42
